System: TK-10 renal
ASSAY_EXPLANATION: NCI-60 one-dose screen, 48 h (100 = growth as untreated, 0 = no growth, -100 = all killed)
EXPERIMENTAL_SETUP: 10 µM unless noted
Compounds without any hit were thinned out: in the full panel of roughly 83,000, 20% have a hit.
VALUE_KIND: growth (%)

C=CC[n+]1c(/C=C/C=C2\N(C)c3ccccc3C2(C)C)sc2ccc(OC)cc21 :: 32.8
C[C@H]1Oc2cc(cnc2N)-c2c(nn(C)c2C#N)CN(C)C(=O)c2ccc(F)cc21 :: 74
N#Cc1cc2[nH]c3ccc(OC(F)(F)F)cc3c2oc1=O :: 132
COc1cc(Nc2ncc(F)c(Nc3ccc4c(n3)NC(=O)C(C)(C)O4)n2)cc(OC)c1OC :: 27.2
COc1ccc(-c2nc(N)ncc2Oc2ccccc2OC)c(O)c1 :: 55.9
CC1(C)NC(=O)c2[nH]c3c(Cl)c(Cl)ccc3c2C1C#N (centres undefined) :: 63.2
C[C@H](NC(=O)c1c(N)nn2cccnc12)c1cc2cccc(C#Cc3cnn(C)c3)c2c(=O)n1-c1ccccc1 :: -9.96
COc1ccc2c(CCCC(c3ccccc3)c3ccccc3)c3[n+](cc2c1OC)CCc1cc2c(cc1-3)OCO2 :: -30.7
CCOC(=O)c1sc(NC(=O)COc2ccc(/C=C3\Cc4ccc(Cl)cc4C3=O)cc2)nc1C :: 149
CC(C)OP(=O)(CCC(=O)c1c[nH]c2ccccc12)OC(C)C :: 97.8
[2H]C1([2H])[C@H](C)O[C@H](C)C([2H])([2H])N1c1ccc(NC(=O)c2cccc(-c3ccc(OC(F)(F)F)cc3)c2C)cn1 :: 63.6
Cc1cccc(Cl)c1NC(=O)c1cnc(Nc2cc(N3CCOCC3)cc(S(C)(=O)=O)c2)s1 :: -64.6
N#CCNC(=O)c1ccc(-c2ccnc(Nc3ccc(N4CCOCC4)cc3)n2)cc1 :: -8.51
NC1(C(=O)N[C@@H](CCO)c2ccc(Cl)cc2)CCN(c2ncnc3[nH]ccc23)CC1 :: 13.7
S=C(NCc1ccc2c(c1)OCO2)N1CCN(c2ncnc3c2oc2ccccc23)CC1 :: -3
Cc1ccc(-c2nc3ccc(Cl)cn3c2NC2CCCCC2)o1 :: 87.9
O=C1C=CC2(NN=C(c3ccccc3)N2c2cccc(Cl)c2)c2cccc(O)c21 (centres undefined) :: 118
CN(C)C[C@@H]1CCn2cc(c3ccccc32)C2=C(C(=O)NC2=O)c2cn(c3ccccc23)CCO1 :: 11.5
C=C1C[C@H](O)[C@H](Br)C(C)(C)[C@@]12CCC(C)=C(Cl)C2 :: 31
